Hey, just so you know, these numbers are from patent US20230295310A1.

- target.or.system: T1, human CD3e/d (human, UniProt P07766 23-126; P04234 22-105)
- T1 construct: Bought soluble protein; also called hCD3e/d; human CD3/ed (Sino CT038-H2508H)
- T1 sequence (P07766 23-126, chain 1 of 2): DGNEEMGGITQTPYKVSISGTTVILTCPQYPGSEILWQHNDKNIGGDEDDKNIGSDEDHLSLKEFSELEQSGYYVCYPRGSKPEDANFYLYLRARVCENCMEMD
- T1 sequence (P04234 22-105, chain 2 of 2): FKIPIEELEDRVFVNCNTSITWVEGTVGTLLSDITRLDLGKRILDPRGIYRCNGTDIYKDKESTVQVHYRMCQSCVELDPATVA
- assay.text: SPR (Carterra LSA), mAb on chip
- Method: High-throughput surface plasmon resonance (SPR) coupled kinetic experiments were performed on a Carterra LSA® instrument equipped with an HC-30M chip type (Carterra, USA). The instrument uses two microfluidic modules, a single-flow cell (SFC) and a 96 printhead, to deliver samples to the chip surface via back-and-forth cycling of a fixed sample volume. […] The data were analyzed using the Carterra Kinetics analysis software. […]
So I've got a bunch of binders here, and I need their pKd values.
One number for each entry, as −log10 of the molar value.

1) mAb 95 (antibody, V domains shown, VH and VL only) VH: QAHLVESGGGVVQPGRSLRLSCSASGFTFSGYGMHWVRQAPGKGLEWVALIYFDGRNKYYADSVKGRFTISRDNSKNTLYLQMNSLRAEDTAVYYCARGGGYNWFDPWGQGTLVTVSS VL: DIQMTQSPSSLSASVGDRVTITCRASQSINNYLSWYQQKPGKAPKLLIYLASNLQSGVPSRFSGSGSGTDFTLTISSLQPEDFATYYCQLSYRSPFTFGPGTKVDVK = 8.75
2) mAb 119 (antibody, V domains shown, VH and VL only) VH: EVQLVESGGGLVQPGRSLRLSCAASGFTFDDYTMHWVRQAPGKGLEWVSGISWNSGSIGYADSVKGRFTISRDNAKNSLYLQMNSLRAEDTALYYCSKDSSGYGYYLNYSLDVWGKGTTVTVSS VL: EIVMTQSPATLSVSPGERATLSCRASQSVSNLAWYQQKPGQAPRLLIYGASTRATGIPARFSGSGSGTEFTLTISSLQSEDFAVYYCQQYNNWPHFGQGTRLQIK = 7.43

Below: the item to evaluate.
Given mAb 252 (antibody, V domains shown, VH and VL only) VH: EVQILESGGGLVQPGGSLRLSCVASGFTFRSYVMSWVRRAPGRGLEWVSGISTSGGNTYYADSVKGRFTISRDNSKNTLFLQMNGLRAEDTAVYYCAKLFSYYYYFMDVWGKGTTVTVSS VL: SYELTQPLSVSVALGQTARITCGGNNIGSKDVHWYQQKPGQAPVLVIYRDSNRPSGIPERFSGSNSGNTATLTISGAQAGDEADYYCQVWDRRTAVFGGGTQLTAL , respond with its pKd. 7.52
